// reported self-cleavage for each item listed
B1: HDV Ribozyme (parent)
chain: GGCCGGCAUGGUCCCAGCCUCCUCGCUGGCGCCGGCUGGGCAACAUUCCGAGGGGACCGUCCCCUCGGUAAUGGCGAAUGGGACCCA

# Variants of: B1
# protocol_description: self-cleavage, relative activity (ratio to wild type); higher = more cleavage; co-transcriptional
reported_endpoint: self-cleavage

| residue_string | value |
| --- | --- |
| GGCCGGCAUGGACCCAGCCUCCUCGCUGGCGCCGGCUGGGCAACAUUCCGAGGGGACCGUCCCCUCGGUAGUGGCGAAUGGGACCCA [U12A A71G] | 0 |
| GGCCGGCAUGGUCUCAGCCUCCUCGCUGGCGCCGGCUGGGCAACAUUCCGAGGGGACCGUCCCCUCGGUAAUGGCUAAUGGGACCCA [C14U G76U] | 1.14 |
| GACCGGCAUGGUCCCAGCCUCCUCGCUGGCGCCGGCUGGGCAACAUUCCGAGGGGACCGUCCCCUCGGGAAUGGCGAAUGGGACCCA [G2A U69G] | 0.219 |
| GGCCGGCAUGGGCCCAGCCUCCUCGCUGGCGCCGGCUGGGCAACAUUCCGAGGGGACCGUCCCCUCGGUAAUGGCGGAUGGGACCCA [U12G A77G] | 0.443 |
| GGCCGGCAUGGUCCCAGCCUCCUCGCUGGCGCCGGCUGGGCAACGUUCCGAGUGGACCGUCCCCUCGGUAAUGGCGAAUGGGACCCA [A45G G53U] | 0.884 |
| GGCCGGCAUGGUCCCAGCCUCCUCGCUGGCGCAGGCUGGGCAACAUUCCGAGGGGACCGUCCCCUCGGUAAUGGCGAAUGGCACCCA [C33A G82C] | 0.17 |
| GGCCGGCAUGGUCCCAGCCUCCUCGCUGGCGCCGGCUGGGCCGCAUUCCGAGGGGACCGUCCCCUCGGUAAUGGCGAAUGGGACCCA [A42C A43G] | 0.0898 |
| GUCCGGCACGGUCCCAGCCUCCUCGCUGGCGCCGGCUGGGCAACAUUCCGAGGGGACCGUCCCCUCGGUAAUGGCGAAUGGGACCCA [G2U U9C] | 0.104 |
| GGCCGGCAUGGUCCCAGCAUCCUCGCUGGCGCCGGCUGGGCAACAUUCCGAGGGGACCGUCCCCUCGGUAAUGGCGAAUGGGGCCCA [C19A A83G] | 0.122 |
| UGCCGGCAUGGUCCCAGCCUCCUCGCUGGCGCCGGCUGGGCAACAUUCCGAGGGGACCGACCCCUCGGUAAUGGCGAAUGGGACCCA [G1U U60A] | 0.343 |
| GGCCGGCAUGGUCCCAGCCUCCUCGCUGGCGCCGGCUGAGCAACAUUCCGAGGGGACUGUCCCCUCGGUAAUGGCGAAUGGGACCCA [G39A C58U] | 0.443 |
| GGCCGGCAUGGUCCCAGCCUCCUCGCUGGCGCCGGCUGGGCAACAUUCCGAGGGGUCCGUCCCCACGGUAAUGGCGAAUGGGACCCA [A56U U65A] | 1 |
| GGCCGGCAUGGUCCCAGCCUCCUCGCUGGCGCCGGCUGGGCAACAUUCCGAGGGCACCGUCCCCUCGGUAAUGGGGAAUGGGACCCA [G55C C75G] | 0.208 |
| GGCCGGCAUGGUCCCAGCCUCCACGCUGGCGCCGGCUGGGCAACAUUCCGAGGGGACCGUCCCCUCGGUGAUGGCGAAUGGGACCCA [U23A A70G] | 0.931 |
| GGCCGGCAUGGUCCCAGCCUCCUCGCUGACGCCGGCUGGGCAACAUUCCGAGGGGCCCGUCCCCUCGGUAAUGGCGAAUGGGACCCA [G29A A56C] | 0.198 |
| GGCCGGGAUGGUCCCAGCCUCCUCGCUGGCGCCGGCUGGGUAACAUUCCGAGGGGACCGUCCCCUCGGUAAUGGCGAAUGGGACCCA [C7G C41U] | 0.0615 |
| GGCCGGCAUGGUCCCAGCAUCCUCGCUGGCGCCGGCUGGGCAACAUUCCGAGGGGACCCUCCCCUCGGUAAUGGCGAAUGGGACCCA [C19A G59C] | 0.04 |
| GGCCGGUAUGGUCCCAGCCUCCUCGCUGGCGCCGGCUGGGCAACAUUCCGAGGGGACCGUCCCCUCGGUAAUGGCGAAUGGAACCCA [C7U G82A] | 0.251 |
| GGCGGGCAUGGUCCCAGCCUCCUCGCUGGCGCCGGCUGGGCAACAUUCCGAGGGGACCGUCCCCUCGGUAAUGGCGAAUGGGACUCA [C4G C85U] | 0.306 |
| GGCCGGCAUGGUCCCAGCGUCCUGGCUGGCGCCGGCUGGGCAACAUUCCGAGGGGACCGUCCCCUCGGUAAUGGCGAAUGGGACCCA [C19G C24G] | 0 |
| GGCCGGCAUGGUCCGAGCCUCCUCGCUGGCGCCGGAUGGGCAACAUUCCGAGGGGACCGUCCCCUCGGUAAUGGCGAAUGGGACCCA [C15G C36A] | 0.306 |
| GGCAGGCAUGGUCCCAGGCUCCUCGCUGGCGCCGGCUGGGCAACAUUCCGAGGGGACCGUCCCCUCGGUAAUGGCGAAUGGGACCCA [C4A C18G] | 0.166 |
